- Measurement Protocol: Transporter-mediated transepithelial Gly-Sar transport
- Format: in vitro ADME, canine
- Experimental Setup: dog, BL–AP permeability, MDCKII-MRP2, AP chamber pH 6.0, BL pH 7.4
Square brackets hold non-standard residues; d marks the D form. Peptide text beside a SMILES is read from it. Sar = CNCC(=O)O
Measured Parameter: Papp B→A at 60 min, 0.5 μCi/mL (×10⁻⁶ cm/s)
Answers are plain numbers, in ×10⁻⁶ cm/s.

Need Papp B→A at 60 min, 0.5 μCi/mL, item CN(CC(=O)O)C(=O)CN [Gly-Sar, Glycylsarcosine] (H-Gly-[Sar]-OH)
7.5
